Molecular target: Solute carrier organic anion transporter family member 1B3 (Homo sapiens, UniProt Q9NPD5)
Sequence (Q9NPD5 whole entry): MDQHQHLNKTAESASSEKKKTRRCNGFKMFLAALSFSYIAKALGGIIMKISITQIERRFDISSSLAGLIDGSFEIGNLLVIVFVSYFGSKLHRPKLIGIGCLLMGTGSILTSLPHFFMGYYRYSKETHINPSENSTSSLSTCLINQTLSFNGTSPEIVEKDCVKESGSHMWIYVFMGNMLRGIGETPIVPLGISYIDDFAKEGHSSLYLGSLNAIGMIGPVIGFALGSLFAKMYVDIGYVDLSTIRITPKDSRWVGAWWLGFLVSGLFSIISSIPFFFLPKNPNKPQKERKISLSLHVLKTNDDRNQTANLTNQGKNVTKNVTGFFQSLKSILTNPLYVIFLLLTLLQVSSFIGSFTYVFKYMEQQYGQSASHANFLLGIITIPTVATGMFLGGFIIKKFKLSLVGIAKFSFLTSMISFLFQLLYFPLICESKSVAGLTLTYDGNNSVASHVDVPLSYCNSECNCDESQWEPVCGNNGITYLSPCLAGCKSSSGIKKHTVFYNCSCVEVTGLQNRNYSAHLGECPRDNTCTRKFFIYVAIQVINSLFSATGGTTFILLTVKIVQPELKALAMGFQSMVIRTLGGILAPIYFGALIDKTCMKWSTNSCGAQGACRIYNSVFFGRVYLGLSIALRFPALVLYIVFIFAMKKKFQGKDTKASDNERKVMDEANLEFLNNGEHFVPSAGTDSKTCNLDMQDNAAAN
Assay: Inhibition of human liver OATP1B3 expressed in HEK293 Flp-In cells assessed as reduction in [3H]E17-betaG uptake at 20 uM incubated for 5 mins by scintillation counting
Settings: hek293, 5 min
One threshold, 30%, splits the recorded INH values: lower ones are met, equal or higher ones are not met.

INSERT INTO results (molecule, assignedcategory) VALUES
  ('Cc1cccc(C)c1NC(=O)CC12CCCN1CCC2 [PILSICAINIDE]', 'met'),
  ('CCOc1cc(CC(=O)N[C@@H](CC(C)C)c2ccccc2N2CCCCC2)ccc1C(=O)O [REPAGLINIDE]', 'not met'),
  ('C[C@H](CCC(=O)NCCS(=O)(=O)O)[C@H]1CC[C@H]2[C@@H]3[C@H](O)C[C@@H]4C[C@H](O)CC[C@]4(C)[C@H]3CC[C@]12C [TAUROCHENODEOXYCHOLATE]', 'not met'),
  ('CCc1c2c(nc3ccc(OC(=O)N4CCC(N5CCCCC5)CC4)cc13)-c1cc3c(c(=O)n1C2)COC(=O)[C@]3(O)CC', 'met'),
  ('CSCC[C@H](NC(=O)[C@H](Cc1ccc(OS(=O)(=O)O)cc1)NC(=O)[C@@H](N)CC(=O)O)C(=O)NCC(=O)N[C@@H](Cc1c[nH]c2ccccc12)C(=O)N[C@@H](CCSC)C(=O)N[C@@H](CC(=O)O)C(=O)N[C@@H](Cc1ccccc1)C(N)=O [SINCALIDE]', 'not met');
